Molecular target: CCN2-EGFR (Homo sapiens) (UniProt P00533+P29279)
Sequence (P00533 whole entry, looked up, the tested form may be a part): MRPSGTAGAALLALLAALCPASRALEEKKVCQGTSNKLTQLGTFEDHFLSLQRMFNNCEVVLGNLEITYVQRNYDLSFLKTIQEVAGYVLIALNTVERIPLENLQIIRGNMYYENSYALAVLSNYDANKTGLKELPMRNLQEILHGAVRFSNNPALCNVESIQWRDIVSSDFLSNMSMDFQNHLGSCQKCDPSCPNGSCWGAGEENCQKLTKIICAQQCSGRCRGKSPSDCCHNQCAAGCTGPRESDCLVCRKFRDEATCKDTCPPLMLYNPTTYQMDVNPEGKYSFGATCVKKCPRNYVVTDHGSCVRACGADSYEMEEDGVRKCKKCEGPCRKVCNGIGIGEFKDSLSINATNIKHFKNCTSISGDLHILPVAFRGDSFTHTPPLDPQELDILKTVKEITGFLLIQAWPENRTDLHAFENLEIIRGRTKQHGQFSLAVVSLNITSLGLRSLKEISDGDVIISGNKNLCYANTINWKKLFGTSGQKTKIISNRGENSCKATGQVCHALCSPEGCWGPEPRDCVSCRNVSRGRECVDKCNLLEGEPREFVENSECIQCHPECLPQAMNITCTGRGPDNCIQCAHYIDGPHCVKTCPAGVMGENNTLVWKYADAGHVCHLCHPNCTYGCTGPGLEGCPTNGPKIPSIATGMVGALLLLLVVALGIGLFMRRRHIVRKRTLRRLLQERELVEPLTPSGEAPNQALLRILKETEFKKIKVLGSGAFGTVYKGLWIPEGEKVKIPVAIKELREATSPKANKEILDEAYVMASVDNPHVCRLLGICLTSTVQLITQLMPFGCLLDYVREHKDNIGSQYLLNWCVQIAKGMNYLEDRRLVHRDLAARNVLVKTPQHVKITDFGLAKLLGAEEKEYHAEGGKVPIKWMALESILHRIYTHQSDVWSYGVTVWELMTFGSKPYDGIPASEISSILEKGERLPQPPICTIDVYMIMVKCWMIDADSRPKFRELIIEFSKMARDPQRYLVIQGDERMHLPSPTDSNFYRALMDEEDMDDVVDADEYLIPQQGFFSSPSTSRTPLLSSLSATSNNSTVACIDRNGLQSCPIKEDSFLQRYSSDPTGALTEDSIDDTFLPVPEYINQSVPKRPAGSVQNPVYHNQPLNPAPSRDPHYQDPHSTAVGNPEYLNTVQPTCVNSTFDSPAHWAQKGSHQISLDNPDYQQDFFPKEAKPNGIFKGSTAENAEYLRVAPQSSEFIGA
Sequence (P29279 whole entry, looked up, the tested form may be a part): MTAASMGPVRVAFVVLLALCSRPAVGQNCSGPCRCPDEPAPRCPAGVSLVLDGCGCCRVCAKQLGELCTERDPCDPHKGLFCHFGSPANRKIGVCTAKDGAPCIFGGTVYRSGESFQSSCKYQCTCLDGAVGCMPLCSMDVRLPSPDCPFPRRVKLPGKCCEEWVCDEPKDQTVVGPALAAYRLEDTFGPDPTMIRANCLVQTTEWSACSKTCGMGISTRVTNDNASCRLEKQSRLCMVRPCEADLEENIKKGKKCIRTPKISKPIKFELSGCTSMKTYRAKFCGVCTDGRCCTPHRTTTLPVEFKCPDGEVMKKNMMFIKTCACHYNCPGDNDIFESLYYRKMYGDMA
Experiment: Inhibition of His-tagged full length human CCN2 CT domain/human Fc-tagged EGFR protein-protein interaction using TMB as chromogenic substrate at 100 uM incubated for 140 mins by microplate reader assay relative to control
Peptide text beside a SMILES is read from it.
recorded.endpoint: inhibition (%)

Observe how each entry below is paired with its result.
Prompt: Which inhibition is reported for this molecule? C[C@@H](O)[C@H](N)C(=O)N[C@@H](Cc1c[nH]cn1)C(=O)N[C@@H](Cc1c[nH]cn1)C(=O)N[C@@H](CCCNC(=N)N)C(=O)N[C@@H](CCC(N)=O)C(=O)N[C@@H](Cc1c[nH]c2ccccc12)C(=O)N[C@H](C(N)=O)[C@@H](C)O (H-THHRQWT-NH2)
Completion: 1.2

Prompt: Which inhibition is reported for this molecule? CC(C)C[C@H](N)C(=O)N[C@@H](C)C(=O)N[C@@H](C)C(=O)N[C@@H](CC(=O)O)C(=O)N[C@H](C(=O)N[C@H](C(=O)N[C@@H](Cc1c[nH]cn1)C(=O)N[C@@H](Cc1c[nH]cn1)C(=O)N[C@@H](CCCNC(=N)N)C(=O)N1CCC[C@H]1C(=O)N[C@@H](Cc1c[nH]c2ccccc12)C(=O)N[C@H](C(N)=O)[C@@H](C)O)[C@@H](C)O)[C@@H](C)O (H-LAADTTHHRPWT-NH2)
Completion: 69.5

Prompt: Which inhibition is reported for this molecule? C[C@@H](O)[C@H](N)C(=O)N[C@@H](CCCCN)C(=O)N[C@@H](Cc1c[nH]cn1)C(=O)N[C@@H](CCCNC(=N)N)C(=O)N1CCC[C@H]1C(=O)N[C@@H](Cc1c[nH]c2ccccc12)C(=O)N[C@H](C(N)=O)[C@@H](C)O (H-TKHRPWT-NH2)
Completion: 78.7

Prompt: Which inhibition is reported for this molecule? C[C@@H](O)[C@H](N)C(=O)N[C@@H](Cc1c[nH]cn1)C(=O)N[C@@H](Cc1c[nH]cn1)C(=O)N[C@@H](CCCCN)C(=O)N1CCC[C@H]1C(=O)N[C@@H](Cc1c[nH]c2ccccc12)C(=O)N[C@H](C(N)=O)[C@@H](C)O (H-THHKPWT-NH2)
Completion: 65.8

1: C[C@@H](O)[C@H](N)C(=O)N[C@@H](CCC(N)=O)C(=O)N[C@@H](Cc1c[nH]cn1)C(=O)N[C@@H](CCCNC(=N)N)C(=O)N1CCC[C@H]1C(=O)N[C@@H](Cc1c[nH]c2ccccc12)C(=O)N[C@H](C(N)=O)[C@@H](C)O (H-TQHRPWT-NH2)
2: CC(C)C[C@H](NC(=O)[C@H](CCCNC(=N)N)NC(=O)[C@H](Cc1c[nH]cn1)NC(=O)[C@H](Cc1c[nH]cn1)NC(=O)[C@@H](N)[C@@H](C)O)C(=O)N[C@@H](Cc1c[nH]c2ccccc12)C(=O)N[C@H](C(N)=O)[C@@H](C)O (H-THHRLWT-NH2)
Prompt: Pick one, 1 or 2 : lowest reported inhibition. Use the label to indicate which entry you chose.
Completion: 1
(1: 11.8%, 2: 43.6%)
